species on record: Rattus norvegicus; assay: Open TG-GATES - Regimen: Single; type: toxicity, organism-based, Sprague-Dawley; design: regimen Single, gender Male, age 6 weeks; conditions: in vivo, po, 0 mg/kg, 6 h, tissue Blood, route gavage, dose level Control
Record form. Attribute: APTT. Fill in for each entry.
Express it in s; write the number only.

### Prompt Looking for the measured APTT of Cc1cccc(C)c1OCC(C)N (stereo not drawn) , can you help?
### Response 22.4

### Prompt Looking for the measured APTT of OCCN1CCN(CCCN2c3ccccc3Sc3ccc(C(F)(F)F)cc32)CC1 , can you help?
### Response 16.4

### Prompt Looking for the measured APTT of CCOC(=O)C(C)(C)Oc1ccc(Cl)cc1 [CLOFIBRATE] , can you help?
### Response 18.9

### Prompt Looking for the measured APTT of Cn1cc[nH]c1=S , can you help?
### Response 21.9

### Prompt Looking for the measured APTT of C=C(C)[C@H]1Cc2c(ccc3c2O[C@@H]2COc4cc(OC)c(OC)cc4[C@@H]2C3=O)O1 , can you help?
### Response 15.9

### Prompt Looking for the measured APTT of O=[N+]([O-])c1ccc(O)c([N+](=O)[O-])c1 , can you help?
### Response 16.4

### Prompt Looking for the measured APTT of C[C@H]1C(=O)O[C@@H]2CCN3CC=C(COC(=O)[C@](C)(O)[C@]1(C)O)[C@H]23 , can you help?
### Response 20.2

### Prompt Looking for the measured APTT of C[C@H]1O[C@H](O[C@H]2[C@H](O)[C@@H](O)[C@@H](O[C@H]3[C@H](O)[C@@H](O)C(O)O[C@@H]3CO)O[C@@H]2CO)[C@H](O)[C@@H](O)[C@@H]1N[C@H]1C=C(CO)[C@@H](O)[C@H](O)[C@H]1O (stereo partly drawn) , can you help?
### Response 17.2

###

Record form. Attribute: Plat. Fill in for each entry.
species: Rattus norvegicus; assay: Open TG-GATES - Regimen: Single; assay type: toxicity, organism-based, Sprague-Dawley; parameters: regimen Single, gender Male, age 6 weeks; details: in vivo, po, 0 mg/kg, 9 h, tissue Blood, route gavage, dose level Control
Express it in x10_4/uL; write the number only.

### Prompt Looking for the measured Plat of O=[N+]([O-])c1ccc(O)c([N+](=O)[O-])c1 [2,4-DINITROPHENOL] , can you help?
### Response 117.6

### Prompt Looking for the measured Plat of CCOC(=O)C(C)(C)Oc1ccc(Cl)cc1 [CLOFIBRATE] , can you help?
### Response 137.3

### Prompt Looking for the measured Plat of C=C(C)[C@H]1Cc2c(ccc3c2O[C@@H]2COc4cc(OC)c(OC)cc4[C@@H]2C3=O)O1 [ROTENONE] , can you help?
### Response 123.2

### Prompt Looking for the measured Plat of Cc1cccc(C)c1OCC(C)N (centres undefined) [MEXILETINE] , can you help?
### Response 105.6

### Prompt Looking for the measured Plat of C[C@H]1C(=O)O[C@@H]2CCN3CC=C(COC(=O)[C@](C)(O)[C@]1(C)O)[C@H]23 [MONOCROTALINE] , can you help?
### Response 110.9

### Prompt Looking for the measured Plat of OCCN1CCN(CCCN2c3ccccc3Sc3ccc(C(F)(F)F)cc32)CC1 [FLUPHENAZINE] , can you help?
### Response 111.9

### Prompt Looking for the measured Plat of Cc1ccc2cc3c(ccc4ccccc43)c3c2c1CC3 [3-METHYLCHOLANTHRENE] , can you help?
### Response 129.6

### Prompt Looking for the measured Plat of C[C@H]1O[C@H](O[C@H]2[C@H](O)[C@@H](O)[C@@H](O[C@H]3[C@H](O)[C@@H](O)C(O)O[C@@H]3CO)O[C@@H]2CO)[C@H](O)[C@@H](O)[C@@H]1N[C@H]1C=C(CO)[C@@H](O)[C@H](O)[C@H]1O (some centres undefined) [ACARBOSE] , can you help?
### Response 122.9

### Prompt Looking for the measured Plat of Cn1cc[nH]c1=S [METHIMAZOLE] , can you help?
### Response 119.6

Cited source: ChEMBL document CHEMBL3885861
